Protein target, amino acids: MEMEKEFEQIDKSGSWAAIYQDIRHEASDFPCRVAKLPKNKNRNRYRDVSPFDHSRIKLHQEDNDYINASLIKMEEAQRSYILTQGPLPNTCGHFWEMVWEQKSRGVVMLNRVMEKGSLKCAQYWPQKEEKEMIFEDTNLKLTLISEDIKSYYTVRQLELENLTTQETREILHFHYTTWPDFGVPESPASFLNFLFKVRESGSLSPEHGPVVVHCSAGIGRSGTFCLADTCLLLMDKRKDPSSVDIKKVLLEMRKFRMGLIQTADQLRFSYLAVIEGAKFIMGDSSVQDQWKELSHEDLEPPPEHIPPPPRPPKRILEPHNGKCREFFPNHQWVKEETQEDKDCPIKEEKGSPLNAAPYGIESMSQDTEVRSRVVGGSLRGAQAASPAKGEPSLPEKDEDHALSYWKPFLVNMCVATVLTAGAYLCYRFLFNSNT
PARAMETER MEASURED: IC50 (µM)

(a) N[C@@H](Cc1ccc(OC(C(=O)O)C(=O)O)cc1)C(=O)O
(b) N[C@@H](Cc1ccc(OC(F)(C(=O)O)C(=O)O)cc1)C(=O)O
Parameter metric = IC50. Return the lower-valued option from a and b . Mark your selection by writing its label.
b
(b: 1 µM, a: 10 µM)
